Reference source for all entries: ChEMBL document CHEMBL4118132

# Tested on: Staphylococcus aureus
# EXPERIMENT_DESCRIPTION: Antibacterial activity against methicillin-resistant Staphylococcus aureus ATCC 43300 after 24 hrs by broth microdilution method
# Assay type: functional
# MEASUREMENT_CONDITIONS: ATCC 43300, 24 h
Reported MIC values are given for each entry in this list.
MEASURE: MIC (µg/mL)

[[record]]
chemical_string = "Cc1cc(-c2ccccc2)cc2c3ccccc3c[n+](C)c12.[Cl-]"
measure = "MIC"
censoring_operator = "="
observed_value = 2

[[record]]
chemical_string = "Cc1onc(-c2ccccc2)c1C(=O)N[C@@H]1C(=O)N2[C@@H]1SC(C)(C)[C@@H]2C(=O)[O-].[Na+]"
measure = "MIC"
censoring_operator = ">"
observed_value = 64

[[record]]
chemical_string = "COc1cc(-c2cccc(C(F)(F)F)c2)cc2c3ccccc3c[n+](C)c12.[Cl-]"
measure = "MIC"
censoring_operator = "="
observed_value = 8

[[record]]
chemical_string = "COc1ccc(-c2ccc3c(c2)c2ccccc2c[n+]3C)cc1.[Cl-]"
measure = "MIC"
censoring_operator = "="
observed_value = 64

[[record]]
chemical_string = "Cc1cc(-c2ccc(OC(F)(F)F)cc2)cc2c3ccccc3c[n+](C)c12.[Cl-]"
measure = "MIC"
censoring_operator = "="
observed_value = 0.25

[[record]]
chemical_string = "C[n+]1cc2ccccc2c2cc(-c3ccc(C(F)(F)F)cc3)ccc21.[Cl-]"
measure = "MIC"
censoring_operator = "="
observed_value = 16

[[record]]
chemical_string = "C[n+]1cc2ccccc2c2cc(-c3ccc(-c4ccccc4)cc3)ccc21.[Cl-]"
measure = "MIC"
censoring_operator = "="
observed_value = 64

[[record]]
chemical_string = "COc1ccc(-c2cc(C)c3c(c2)c2ccccc2c[n+]3C)cc1.[Cl-]"
measure = "MIC"
censoring_operator = "="
observed_value = 4

[[record]]
chemical_string = "COc1ccc(-c2cc(OC)c3c(c2)c2ccccc2c[n+]3C)cc1.[Cl-]"
measure = "MIC"
censoring_operator = "="
observed_value = 32

[[record]]
chemical_string = "C[n+]1cc2ccccc2c2cc(-c3cccc(C(F)(F)F)c3)ccc21.[Cl-]"
measure = "MIC"
censoring_operator = "="
observed_value = 16

[[record]]
chemical_string = "Cc1ccc(-c2ccc3c(c2)c2ccccc2c[n+]3C)cc1.[Cl-]"
measure = "MIC"
censoring_operator = "="
observed_value = 16

[[record]]
chemical_string = "COc1cc(-c2ccc(OC(F)(F)F)cc2)cc2c3ccccc3c[n+](C)c12.[Cl-]"
measure = "MIC"
censoring_operator = "="
observed_value = 4

[[record]]
chemical_string = "COc1cc(-c2ccc(-c3ccccc3)cc2)cc2c3ccccc3c[n+](C)c12.[Cl-]"
measure = "MIC"
censoring_operator = "="
observed_value = 4

[[record]]
chemical_string = "COc1cc(/C=C/C(=O)CC(=O)/C=C/c2ccc(O)c(OC)c2)ccc1O"
measure = "MIC"
censoring_operator = "="
observed_value = 64

[[record]]
chemical_string = "Cc1cc(-c2ccccc2C(F)(F)F)cc2c3ccccc3c[n+](C)c12.[Cl-]"
measure = "MIC"
censoring_operator = "="
observed_value = 1

[[record]]
chemical_string = "COc1cc(-c2ccccc2)cc2c3ccccc3c[n+](C)c12.[Cl-]"
measure = "MIC"
censoring_operator = "="
observed_value = 8

[[record]]
chemical_string = "Cc1cc(-c2ccc(C(F)(F)F)cc2)cc2c3ccccc3c[n+](C)c12.[Cl-]"
measure = "MIC"
censoring_operator = "="
observed_value = 0.25

[[record]]
chemical_string = "COc1cc(-c2ccc(C(F)(F)F)cc2)cc2c3ccccc3c[n+](C)c12.[Cl-]"
measure = "MIC"
censoring_operator = "="
observed_value = 4

[[record]]
chemical_string = "C[n+]1cc2ccccc2c2cc(-c3ccccc3)ccc21.[Cl-]"
measure = "MIC"
censoring_operator = "="
observed_value = 16

[[record]]
chemical_string = "Cc1ccc(-c2cc(C)c3c(c2)c2ccccc2c[n+]3C)cc1.[Cl-]"
measure = "MIC"
censoring_operator = "="
observed_value = 2

